# protocol-text: Cytotoxicity against Homo sapiens (human) melanoma cells after 48 hr by SRB assay
# Type: functional
# test-settings: Melanoma cell
Each entry belongs to exactly one class, chosen by where its GI50 falls: low: < 30 µM; middle: ≥ 30 µM and < 40 µM; high: ≥ 40 µM

Exam item: Into which bin does this compound go? O=S(=O)(NC(=S)Nc1ccccc1)c1ccc(N2N=C3c4ccccc4CC3C2c2cccs2)cc1 (stereo not drawn)
Marked response: middle

Exam item: State the class of the compound shown: O=C1CS/C(=N\S(=O)(=O)c2ccc(N3N=C4c5ccccc5CC4C3c3cccs3)cc2)N(c2ccccc2)C1 (stereo not drawn)
Marked response: high

Exam item: Each compound maps to one class by GI50. Which class for NS(=O)(=O)c1ccc(-n2nc3c(c2-c2cccs2)Cc2ccccc2-3)cc1 ?
Marked response: low

Exam item: Category of O=C1CCS/C(=N\S(=O)(=O)c2ccc(N3N=C4c5ccccc5CC4C3c3cccs3)cc2)N1C(=O)c1ccccc1 (stereo not drawn) :
Marked response: low

Exam item: Could you place NS(=O)(=O)c1ccc(N2N=C3c4ccccc4CC3C2c2cccs2)cc1 (stereo not drawn) in its proper category? Many thanks.
Marked response: high

Exam item: Lab log: O=C(c1ccccc1)n1c(-c2ccccc2)cs/c1=N\S(=O)(=O)c1ccc(N2N=C3c4ccccc4CC3C2c2cccs2)cc1 (stereo not drawn) — assign GI50 category
Marked response: high

Exam item: Returns: class label. Input: O=S(=O)(/N=c1\scc(-c2ccccc2)n1-c1ccccc1)c1ccc(N2N=C3c4ccccc4CC3C2c2cccs2)cc1 (stereo not drawn)
Marked response: high

Exam item: Form: Item = O=C(NC(=S)NS(=O)(=O)c1ccc(N2N=C3c4ccccc4CC3C2c2cccs2)cc1)c1ccccc1 (stereo not drawn) ; Class = ?
Marked response: middle

Exam item: Field: class (GI50) — entry: O=C1CCS/C(=N\S(=O)(=O)c2ccc(N3N=C4c5ccccc5CC4C3c3cccs3)cc2)N1c1ccccc1 (stereo not drawn)
Marked response: low

Exam item: Quick check: band for O=C(NC1CCCCC1)NS(=O)(=O)c1ccc(-n2nc3c(c2-c2cccs2)Cc2ccccc2-3)cc1
Marked response: low

Exam item: Class for O=C1CS/C(=N\S(=O)(=O)c2ccc(N3N=C4c5ccccc5CC4C3c3cccs3)cc2)N1C(=O)c1ccccc1 (stereo not drawn) ?
Marked response: high

###

# System: BT-549
# protocol-text: Cytotoxicity against Homo sapiens (human) BT549 cells after 48 hr by SRB assay
# Type: functional
# test-settings: BT-549, 48 h
quantity-name: GI50 (µM)
Give the value, in units of µM, as a plain number.

Reported BT-549 GI50 for item O=S(=O)(NC(=S)Nc1ccccc1)c1ccc(N2N=C3c4ccccc4CC3C2c2cccs2)cc1 (centres undefined) was 24.6

GI50 value, target or system BT-549, for O=C1CS/C(=N\S(=O)(=O)c2ccc(N3N=C4c5ccccc5CC4C3c3cccs3)cc2)N(c2ccccc2)C1 (centres undefined) : 21.4

Record for O=S(=O)(/N=c1\scc(-c2ccccc2)n1-c1ccccc1)c1ccc(N2N=C3c4ccccc4CC3C2c2cccs2)cc1 (centres undefined) under target or system BT-549: GI50 reported as 47.5

Reported GI50 (BT-549) for entry NS(=O)(=O)c1ccc(-n2nc3c(c2-c2cccs2)Cc2ccccc2-3)cc1 is 12.4

Given the compound O=C(NC(=S)NS(=O)(=O)c1ccc(N2N=C3c4ccccc4CC3C2c2cccs2)cc1)c1ccccc1 (centres undefined) and test system BT-549, the measured GI50 is 21.6

// returns GI50 for O=C(Nc1ccccc1)NS(=O)(=O)c1ccc(-n2nc3c(c2-c2cccs2)Cc2ccccc2-3)cc1 with BT-549; value = 24.1

Recorded GI50 for O=C(c1ccccc1)n1c(-c2ccccc2)cs/c1=N\S(=O)(=O)c1ccc(N2N=C3c4ccccc4CC3C2c2cccs2)cc1 (centres undefined) on BT-549 was 69.7

Item: O=C(NC1CCCCC1)NS(=O)(=O)c1ccc(-n2nc3c(c2-c2cccs2)Cc2ccccc2-3)cc1 | System: BT-549 | GI50: 33.7

GI50 on BT-549 for O=C1CCS/C(=N\S(=O)(=O)c2ccc(N3N=C4c5ccccc5CC4C3c3cccs3)cc2)N1c1ccccc1 (centres undefined) is 47.5

###

Record form. Attribute: GI50. Fill in for each entry.
# Tested on: CAKI-1
# protocol-text: Cytotoxicity against Homo sapiens (human) Caki1 cells after 48 hr by SRB assay
# Type: functional
# test-settings: CAKI-1, 48 h
Report the figure in µM without appending any unit label.

Value of measured GI50 for the entry O=C1CS/C(=N\S(=O)(=O)c2ccc(N3N=C4c5ccccc5CC4C3c3cccs3)cc2)N(c2ccccc2)C1 (configuration not stated) : 74.5

// field: GI50; key: NS(=O)(=O)c1ccc(-n2nc3c(c2-c2cccs2)Cc2ccccc2-3)cc1 ; value = 10.1

Please fill in: GI50 reported for O=C(NC(=S)NS(=O)(=O)c1ccc(N2N=C3c4ccccc4CC3C2c2cccs2)cc1)c1ccccc1 (configuration not stated) = 26.1

Briefly, GI50 measured for O=C1CS/C(=N\S(=O)(=O)c2ccc(N3N=C4c5ccccc5CC4C3c3cccs3)cc2)N1C(=O)c1ccccc1 (configuration not stated) : 39

compound O=C(c1ccccc1)n1c(-c2ccccc2)cs/c1=N\S(=O)(=O)c1ccc(N2N=C3c4ccccc4CC3C2c2cccs2)cc1 (configuration not stated) , GI50 observed: 38

The compound listed as O=S(=O)(NC(=S)Nc1ccccc1)c1ccc(N2N=C3c4ccccc4CC3C2c2cccs2)cc1 (configuration not stated) shows GI50 equal to 18.5

Data point: O=S(=O)(/N=c1\scc(-c2ccccc2)n1-c1ccccc1)c1ccc(N2N=C3c4ccccc4CC3C2c2cccs2)cc1 (configuration not stated) ; GI50 = 73

###

# protocol-text: Cytotoxicity against Homo sapiens (human) renal cancer cells after 48 hr by SRB assay
# Assay type: functional
# test-settings: Cancer cell lines
Please go through the items and note down their TGI.
Give a bare numeral; the unit µM is implied.

The molecule listed as NS(=O)(=O)c1ccc(-n2nc3c(c2-c2cccs2)Cc2ccccc2-3)cc1 has a reported TGI of 29.7

Sure, the documented TGI for O=C1CCS/C(=N\S(=O)(=O)c2ccc(N3N=C4c5ccccc5CC4C3c3cccs3)cc2)N1C(=O)c1ccccc1 (stereo not drawn) is 38.1

Entry O=C(NC(=S)NS(=O)(=O)c1ccc(N2N=C3c4ccccc4CC3C2c2cccs2)cc1)c1ccccc1 (stereo not drawn) ; TGI = 87.2

###

# protocol-text: Cytotoxicity against Homo sapiens (human) breast cancer cells after 48 hr by SRB assay
# Format: functional
# test-settings: Cancer cell lines
Give measured TGI for each item. Keep answers brief.
Kindly provide the numeric value in µM only, without the unit symbol.

Form: compound = O=C1CCS/C(=N\S(=O)(=O)c2ccc(N3N=C4c5ccccc5CC4C3c3cccs3)cc2)N1c1ccccc1 (stereo unspecified) ; TGI = 56.2

The compound identified as NS(=O)(=O)c1ccc(-n2nc3c(c2-c2cccs2)Cc2ccccc2-3)cc1 registered its TGI at 34.7

Looking up O=C(Nc1ccccc1)NS(=O)(=O)c1ccc(N2N=C3c4ccccc4CC3C2c2cccnc2)cc1 (stereo unspecified) , I see its TGI listed as 87.8

Just so you know, measured TGI for O=C(NC1CCCCC1)NS(=O)(=O)c1ccc(-n2nc3c(c2-c2cccs2)Cc2ccccc2-3)cc1 came out at 94.2

###

# System: CAKI-1
# protocol-text: Cytotoxicity against Homo sapiens (human) Caki1 cells after 48 hr by SRB assay
# Format: functional
# test-settings: CAKI-1, 48 h
quantity-name: GI50 (µM)
The response must be a number in µM with no trailing unit.

So, O=C1CCS/C(=N\S(=O)(=O)c2ccc(N3N=C4c5ccccc5CC4C3c3cccs3)cc2)N1c1ccccc1 (stereo not drawn) ? Its GI50 was 73

What the record says about NS(=O)(=O)c1ccc(N2N=C3c4ccccc4CC3C2c2cccs2)cc1 (stereo not drawn) : GI50 is 19.6

The reported GI50 of the molecule O=C(NC1CCCCC1)NS(=O)(=O)c1ccc(-n2nc3c(c2-c2cccs2)Cc2ccccc2-3)cc1 was 16

###

# protocol-text: Cytotoxicity against Homo sapiens (human) prostate cancer cells after 48 hr by SRB assay
# Type: functional
# test-settings: Cancer cell lines
Field 'label' (enum: fulfilled / not fulfilled). Set to fulfilled when GI50 is strictly under 30 µM; else not fulfilled.

Exam item: Please indicate whether the reported GI50 of O=C1CCS/C(=N\S(=O)(=O)c2ccc(N3N=C4c5ccccc5CC4C3c3cccs3)cc2)N1C(=O)c1ccccc1 (stereo not given) is strictly below 30 µM.
Marked response: fulfilled

Exam item: Here's an entry: O=C(NC1CCCCC1)NS(=O)(=O)c1ccc(-n2nc3c(c2-c2cccs2)Cc2ccccc2-3)cc1 . Is its GI50 below 30 µM?
Marked response: fulfilled

Exam item: Consider the compound O=C(c1ccccc1)n1c(-c2ccccc2)cs/c1=N\S(=O)(=O)c1ccc(N2N=C3c4ccccc4CC3C2c2cccs2)cc1 (stereo not given) . Is its GI50 strictly less than 30 µM?
Marked response: not fulfilled

Exam item: Below 30 µM on GI50? Entry O=C1CS/C(=N\S(=O)(=O)c2ccc(N3N=C4c5ccccc5CC4C3c3cccs3)cc2)N1C(=O)c1ccccc1 (stereo not given)
Marked response: not fulfilled

Exam item: Field: below-cutoff. Rule: recorded GI50 strictly less than 30 µM. Subject: NS(=O)(=O)c1ccc(N2N=C3c4ccccc4CC3C2c2cccs2)cc1 (stereo not given)
Marked response: fulfilled
